Target: T1, scHLA-B27-mmH (engineered HLA-B*27 ectodomain in-line fusion protein) (human (HLA-B*2705, beta-2 …))
T1 construct: also called soluble HLA-B*27 fusion protein
Experiment: SPR (Biacore), 25 C, PBS pH 5.75
Recorded metric: log10(Kd) (log10 of the value in nM)
// stored as log10 of Kd expressed in nM

H4H2526P (antibody, V domains shown) VH: QVQLVESGGGVVQPGRSLRLSCAASGFTFSRFGMDWVRQAPGKGLEWVAVISYDGKNKLYADSVKGRFTISRDNSKNTLYMQMNSLRAEDTAVYYCAKEGDNWNFVGDSWGQGTLVTVSS VL: DIQMTQSPSSVSASVGDRVTITCRASQDISARLAWYQQKPGKAPKLLIYAASSLQSGVPSRFSGSGSGTDFTLTISSLEPEDFATYYCQQADSFPYTLGQGTKLEIK = -0.13
H4H2542P (antibody, V domains shown) VH: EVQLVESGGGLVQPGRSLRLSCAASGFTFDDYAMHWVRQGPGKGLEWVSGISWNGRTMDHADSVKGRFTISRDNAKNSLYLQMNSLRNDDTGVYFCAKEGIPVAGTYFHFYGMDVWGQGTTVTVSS VL: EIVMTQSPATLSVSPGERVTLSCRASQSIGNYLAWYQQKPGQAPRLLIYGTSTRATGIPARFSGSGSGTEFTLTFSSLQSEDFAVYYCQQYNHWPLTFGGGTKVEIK = 2.69
H4H2477N2 (antibody, V domains shown) VH: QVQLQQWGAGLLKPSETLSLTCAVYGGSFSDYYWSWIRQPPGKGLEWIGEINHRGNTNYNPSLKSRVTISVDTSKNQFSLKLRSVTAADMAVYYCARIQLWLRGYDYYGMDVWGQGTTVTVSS VL: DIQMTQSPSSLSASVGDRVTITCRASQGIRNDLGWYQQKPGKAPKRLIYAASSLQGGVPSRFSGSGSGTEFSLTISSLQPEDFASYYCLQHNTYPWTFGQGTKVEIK = 2.20
H4H2530S (antibody, V domains shown) VH: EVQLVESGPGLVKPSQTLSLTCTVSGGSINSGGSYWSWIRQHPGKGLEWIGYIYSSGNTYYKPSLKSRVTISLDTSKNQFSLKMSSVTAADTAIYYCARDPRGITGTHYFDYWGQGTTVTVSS VL: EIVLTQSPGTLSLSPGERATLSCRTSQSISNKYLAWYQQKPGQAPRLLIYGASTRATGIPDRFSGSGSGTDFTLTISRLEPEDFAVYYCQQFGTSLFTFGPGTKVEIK = 1.03
H4H2490N2 (antibody, V domains shown) VH: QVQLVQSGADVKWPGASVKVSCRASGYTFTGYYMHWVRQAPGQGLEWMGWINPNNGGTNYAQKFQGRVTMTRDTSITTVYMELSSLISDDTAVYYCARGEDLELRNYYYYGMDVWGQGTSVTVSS VL: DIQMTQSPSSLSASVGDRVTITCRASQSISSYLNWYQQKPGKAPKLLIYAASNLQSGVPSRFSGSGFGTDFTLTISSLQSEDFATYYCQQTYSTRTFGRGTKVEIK = 2.37
H4H2480N (antibody, V domains shown) VH: QVQLQQWGAGLLKPSETLSLTCAVYGGSFSGYYWSWIRQTPGKGLEWIGEISHSGNNNYNPSLKSRVTMSKDTSKNQFSLKLSSVTAADTAVYYCARIQLWLRGNDYYGMDVWGQGITVTVSS VL: DIQMTQSPSSLSASVGDRVTITCRASQGIRNDLGWYQQKPGKAPKRLIYAASSLQGGVPSRFSGSGSGTEFTLTISSLQPEDFATYYCLQHNSYPWTFGQGTKVEIK = 2.11

Find the recorded log10(Kd) belonging to H4H2718N (antibody, V domains shown) VH: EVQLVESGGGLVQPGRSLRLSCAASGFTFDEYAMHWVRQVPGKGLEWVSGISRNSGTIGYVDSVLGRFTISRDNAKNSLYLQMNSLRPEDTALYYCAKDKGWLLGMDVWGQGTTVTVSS VL: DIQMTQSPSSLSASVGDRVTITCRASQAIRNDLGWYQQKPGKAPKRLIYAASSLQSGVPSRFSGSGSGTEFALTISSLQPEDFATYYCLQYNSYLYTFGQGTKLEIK and report it.
1.99
